Assay: Selectivity index, ratio of IC50 for cytotoxicity against human A549 cells to IC50 for antimalarial activity against Plasmodium falciparum 3D7
Assay type: toxicity, cell-based
Conditions: read-out: Ratio IC50
Overview of reported selectivity ratio across a group of molecules:

molecule: Oc1ccccc1C(c1ccc(OC(F)(F)F)cc1)N1CCN(c2cnccn2)CC1 (configuration not stated)
selectivity ratio: 32.8
//
molecule: COc1cccc(C(c2ccc(OC(F)(F)F)cc2)N2CCN(c3cnccn3)CC2)c1O (configuration not stated)
selectivity ratio: 13.5
//
molecule: Oc1ccccc1C(c1ccc(Cl)c(Cl)c1)N1CCN(c2cnccn2)CC1 (configuration not stated)
selectivity ratio: 21.9
//
molecule: COc1cccc(C(c2ccc(C(F)(F)F)cc2)N2CCN(c3cnccn3)CC2)c1O (configuration not stated)
selectivity ratio: 39.5
//
molecule: COc1cccc(C(c2ccc(F)c(F)c2)N2CCN(c3cnccn3)CC2)c1O (configuration not stated)
selectivity ratio: 15.1
//
molecule: Oc1ccccc1C(c1ccc(C(F)(F)F)cc1)N1CCN(c2cnccn2)CC1 (configuration not stated)
selectivity ratio: 33.4
//
molecule: COc1ccc(C(c2ccccc2O)N2CCN(c3cnccn3)CC2)cc1 (configuration not stated)
selectivity ratio: 29.9
